Origin of measurements: patent US20190127480A1

subject_of_test: T1, Soluble heterodimeric CD3 protein (hCD3-epsilon/hCD3-delta) with either a human Fc tag (hFcΔAdp/hFc) or a … (human, UniProt P07766 23-126; P04234 22-105)
T1 construct: also called hCD3ε/δ; not shown: Fc tag: human (hFcΔAdp/hFc)
test_description: SPR Biacore 25C antigen-capture
measured_quantity: koff (s⁻¹)
Record the value in s⁻¹, omitting the unit from your answer.

Would you kindly share the measured koff for H1H5763P (antibody, human IgG1, V domains shown, H1H: human IgG1 Fc; divalent) VH: QVQLVESGGGVVQPGRSLRLSCAASGLTFSSYGMHWVRQAPGKGLEWVAVISYDGSNKYYTDSVKGRFTISRDNSKNTLYLQMNSLRAEDTAVYYCAKGAMVRGVPYNYYYGMDVWGQGTTVTVSS VL: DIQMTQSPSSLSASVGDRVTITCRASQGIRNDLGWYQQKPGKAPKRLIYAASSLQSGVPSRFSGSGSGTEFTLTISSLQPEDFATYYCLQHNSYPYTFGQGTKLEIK ?
0.017

Please do the same for H2M2707N (antibody, mouse IgG2, V domains shown, H2M: mouse IgG2 Fc, human variable regions; divalent) VH: QVQLVESGGGVVQPGRSLRLSCIASGFTFRSYGMHWVRQAPGKGLEWVAMIYYDGNNKYYADSVRGRFTISRDNSKNTLYLQMNSLRADDTAVYFCARGPGYNWLDPWGQGTLVTVSS VL: EIVMTQSPATLSVSPGERATLSCRASQSVSSNLAWYQQKPGQAPRLLIYGASTRATGIPARFSGSGSGTEFTLTISSLQSEDFAVYYCQQYNNRPLTFGGGTKVEIK as well.
0.000285
